System name: soluble guanylate cyclase (sGC) (Rattus norvegicus)
Construct: made in house
Sequence (P20595 whole entry): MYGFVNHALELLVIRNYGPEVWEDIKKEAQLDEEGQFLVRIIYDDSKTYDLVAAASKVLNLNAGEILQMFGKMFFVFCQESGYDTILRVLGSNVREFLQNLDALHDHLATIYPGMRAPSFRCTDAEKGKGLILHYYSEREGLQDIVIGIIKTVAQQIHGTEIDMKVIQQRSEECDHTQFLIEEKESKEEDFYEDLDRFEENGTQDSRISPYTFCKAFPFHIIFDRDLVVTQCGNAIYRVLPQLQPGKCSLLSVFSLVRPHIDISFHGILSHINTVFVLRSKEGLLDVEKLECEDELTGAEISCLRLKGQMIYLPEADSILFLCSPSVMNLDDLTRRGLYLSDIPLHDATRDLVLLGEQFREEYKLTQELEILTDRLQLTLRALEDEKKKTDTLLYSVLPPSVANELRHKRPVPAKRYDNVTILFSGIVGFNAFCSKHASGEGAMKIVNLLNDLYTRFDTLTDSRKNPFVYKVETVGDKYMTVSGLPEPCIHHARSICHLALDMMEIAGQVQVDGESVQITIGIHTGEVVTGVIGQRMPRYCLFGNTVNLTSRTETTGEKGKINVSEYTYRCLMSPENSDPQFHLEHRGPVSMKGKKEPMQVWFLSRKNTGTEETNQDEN
Sequence (P19686 whole entry partner): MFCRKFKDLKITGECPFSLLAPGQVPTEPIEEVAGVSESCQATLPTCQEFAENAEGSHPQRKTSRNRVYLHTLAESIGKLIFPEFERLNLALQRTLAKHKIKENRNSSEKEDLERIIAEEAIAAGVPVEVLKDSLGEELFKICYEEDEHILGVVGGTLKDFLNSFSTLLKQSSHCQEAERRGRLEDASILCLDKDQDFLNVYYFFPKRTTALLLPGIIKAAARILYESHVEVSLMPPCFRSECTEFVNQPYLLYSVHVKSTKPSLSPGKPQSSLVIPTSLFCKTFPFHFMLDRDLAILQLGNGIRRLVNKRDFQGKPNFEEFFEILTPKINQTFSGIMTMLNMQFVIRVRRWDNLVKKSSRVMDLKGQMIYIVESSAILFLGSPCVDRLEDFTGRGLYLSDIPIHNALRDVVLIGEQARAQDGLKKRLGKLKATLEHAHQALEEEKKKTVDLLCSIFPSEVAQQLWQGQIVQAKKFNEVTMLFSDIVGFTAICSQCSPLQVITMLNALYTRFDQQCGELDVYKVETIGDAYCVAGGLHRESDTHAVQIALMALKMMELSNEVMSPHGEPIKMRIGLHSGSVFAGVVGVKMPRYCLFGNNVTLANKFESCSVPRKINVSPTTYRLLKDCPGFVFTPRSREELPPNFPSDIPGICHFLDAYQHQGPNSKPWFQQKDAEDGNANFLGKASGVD
Experiment summary: Stimulation of sGC enzyme activity (PPi detection, luciferase luminescence)
Format: biochemical
Where a name gives a salt, the structure may show the parent alone.
The threshold is inclusive: MEC (minimum effective concentration), activating action at the sGC enzyme in vitro of exactly 7 nM counts as TRUE; values below receive FALSE.

Exercise: Identify whether the reported MEC (minimum effective concentration), activating action at the sGC enzyme in vitro of the following compound is 7 nM or greater: O=C(Nc1cc(CC2(C(=O)O)CC2)ccc1F)C(C1CCCC1)N1CCc2ccccc2C1 (racemic) [Example 53, trifluoroacetate]
Solution: TRUE

Exercise: Does the compound "CCC1CCN([C@@H](C(=O)Nc2cc(CC3(C(=O)O)CC3)ccc2Cl)[C@@H](C)C(F)(F)F)CC1" have recorded MEC (minimum effective concentration), activating action at the sGC enzyme in vitro that is 7 nM or more?
Solution: FALSE

Exercise: Check if MEC (minimum effective concentration), activating action at the sGC enzyme in vitro >= 7 nM (inclusive). Item: "CC1CCN([C@@H](C(=O)Nc2cc(CC3(C(=O)O)CC3)ccc2Cl)[C@@H](C)C(F)(F)F)CC1"
Solution: FALSE

Exercise: Test whether the compound C[C@H]([C@H](C(=O)Nc1cc(C[C@H](C)C(=O)O)ccc1Cl)N1CCC2(CC1)CC2)C(F)(F)F (single isomer, unassigned) records MEC (minimum effective concentration), activating action at the sGC enzyme in vitro of 7 nM or higher.
Solution: TRUE

Exercise: Decide: is the reported value of MEC (minimum effective concentration), activating action at the sGC enzyme in vitro for "CC1CCN([C@@H](C(=O)Nc2cc(C[C@H](C)C(=O)O)ccc2Cl)[C@@H](C)C(F)(F)F)CC1" equal to or greater than 7 nM?
Solution: TRUE

Exercise: Please tell me: is the compound CC1CCN(C(C(=O)Nc2cc(CC3(C(=O)O)CC3)ccc2F)C(C)C(F)(F)F)CC1 (single isomer, unassigned; (+)) at or over 7 nM in terms of MEC (minimum effective concentration), activating action at the sGC enzyme in vitro?
Solution: FALSE

Exercise: # bool: MEC (minimum effective concentration), activating action at the sGC enzyme in vitro of C[C@H](CC(=O)O)c1ccc(Cl)c(NC(=O)[C@@H]([C@@H](C)C(F)(F)F)N2CCC3(CC2)CC3)c1 (single isomer, unassigned) >= 7 nM
Solution: FALSE

Exercise: Hi, just wondering whether CCC1CCN(C(C(=O)Nc2cc(CCC(=O)O)ccc2Cl)C(C)C(F)(F)F)CC1 (single isomer, unassigned) shows MEC (minimum effective concentration), activating action at the sGC enzyme in vitro of 7 nM or higher.
Solution: TRUE

Exercise: Form field: MEC (minimum effective concentration), activating action at the sGC enzyme in vitro at least 7 nM? Entry: CCC1CCN([C@@H](C(=O)Nc2cc(CC3(C(=O)O)CC3)ccc2F)[C@@H](C)C(F)(F)F)CC1 (single isomer, unassigned)
Solution: FALSE

Exercise: Dear colleague, could you confirm whether CC1CCN([C@@H](C(=O)Nc2cc([C@H](C)CC(=O)O)ccc2Cl)[C@@H](C)C(F)(F)F)CC1 (single isomer, unassigned) has MEC (minimum effective concentration), activating action at the sGC enzyme in vitro at or above 7 nM?
Solution: FALSE

Exercise: Test whether the compound "C[C@H]([C@H](C(=O)Nc1cc(CC2(C(=O)O)CC2)ccc1Cl)N1CCC2(CC1)CC2)C(F)(F)F" records MEC (minimum effective concentration), activating action at the sGC enzyme in vitro of 7 nM or higher.
Solution: FALSE

Exercise: Evaluate "C[C@H]([C@H](C(=O)Nc1cc(C[C@H](C)C(=O)O)ccc1Cl)N1CCC(C(F)(F)F)CC1)C(F)(F)F" : MEC (minimum effective concentration), activating action at the sGC enzyme in vitro at minimum 7 nM?
Solution: TRUE

Exercise: Test whether the compound CCC1CCN(C(C(=O)Nc2cc(CC3(C(=O)O)CC3)ccc2F)C(C)C(F)(F)F)CC1 (single isomer, unassigned) records MEC (minimum effective concentration), activating action at the sGC enzyme in vitro of 7 nM or higher.
Solution: FALSE
